- Test system: DMS53
- assay.info: ATP luminescence proliferation assay, DMS53
- Format: cell-based, human
- applied.conditions: ATP luminescence, DMS53, 72 h incubation; read-out: EC50 DMS53 (72 h)
measured.parameter: EC50 (nM)
Supply the numeric figure in nM, leaving out any unit text.

{"columns": ["compound", "unit.string", "EC50"],
 "data": [
  ["CC[C@H](C)[C@H](NC(=O)[C@H]1CCCCN1C)C(=O)N(COC(=O)CC(C)C)[C@H](C[C@@H](OC(C)=O)c1nc(C(=O)N[C@@H](Cc2ccccc2)C[C@H](C)C(=O)O)cs1)C(C)C [Tub D, tubulysin D, reference compound]", "nM", 0.069],
  ["CC[C@H](C)[C@H](NC(=O)[C@H]1CCCCN1C)C(=O)N(C)[C@H](C[C@@H](OC)c1nc(C(=O)N[C@@H](Cc2ccc(N)cc2)CC(C)C(=O)O)cs1)C(C)C (some centres unmarked)", "nM", 46],
  ["CC[C@H](C)[C@H](NC(=O)[C@H]1CCCCN1C)C(=O)N(COC(=O)CC(C)C)[C@H](C[C@@H](O)c1nc(C(=O)N[C@@H](Cc2ccccc2)C(=O)OC)cs1)C(C)C", "nM", 58],
  ["CCC[C@H](NC(=O)[C@H](Cc1ccccc1)NC(=O)c1csc([C@@H](C[C@H](C(C)C)N(C)C(=O)[C@@H](NC(=O)[C@H]2CCCCN2C)[C@@H](C)CC)OC)n1)C(=O)OC", "nM", 87]
]}

Form: compound = CC[C@H](C)[C@H](NC(=O)[C@H]1CCCCN1C)C(=O)N(COC)[C@H](C[C@@H](OC)c1nc(C(=O)N[C@@H](Cc2ccccc2)C(=O)OC)cs1)C(C)C [Compound 29c] ; EC50 = 17
